# EXPERIMENTAL_TARGET: human vasopressin V1a receptor (Homo sapiens, UniProt P37288)
# Sequence (P37288 whole entry): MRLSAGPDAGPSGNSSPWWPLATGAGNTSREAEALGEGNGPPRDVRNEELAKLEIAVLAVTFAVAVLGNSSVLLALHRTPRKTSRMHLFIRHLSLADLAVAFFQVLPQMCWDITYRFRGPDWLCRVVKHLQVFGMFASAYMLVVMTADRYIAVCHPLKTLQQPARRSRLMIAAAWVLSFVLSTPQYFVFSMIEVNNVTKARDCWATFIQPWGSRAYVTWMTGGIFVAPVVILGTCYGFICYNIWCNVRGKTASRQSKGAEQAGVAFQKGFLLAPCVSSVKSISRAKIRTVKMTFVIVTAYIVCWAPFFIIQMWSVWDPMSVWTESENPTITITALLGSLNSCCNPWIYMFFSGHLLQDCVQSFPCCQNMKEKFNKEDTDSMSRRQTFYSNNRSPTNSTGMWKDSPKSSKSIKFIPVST
# ASSAY_INFO: Receptor binding study, [3H]AVP displacement on CHO cell membranes, human V1a
# STUDY_CONDITIONS: [3H]AVP displacement, CHO cell membrane, 25° C., one hour; read-out: Human V1a Ki
# Method: (ii) Receptor Binding Study Assay was performed using 50 mM of Tris-HCl (pH=7.4) (total amount: 250 μL) (buffer composition: containing […] of MgCl2 and 0.1% BSA), and incubation was performed at room temperature (25° C.) for one hour. […] After the filter was washed with an ice-cold Tris-HCl buffer (50 mM Tris-HCl, 10 mM MgCl2, pH 7.4), radioactivity measurement was performed. Nonspecific binding was determined using nonradioactive-labeled AVP (1 μM).
pKi: −log10 of the molar value.
REPORTED_PROPERTY: pKi

molecule="COc1cc(C(=O)N2CCC(C)Nc3ccccc32)ccc1-c1ccc2[nH]ccc2c1 (stereo not drawn) [Example 1]" recorded_number=9.41
molecule="C[C@H]1CCN(C(=O)c2ccc(-c3ccc4[nH]ccc4c3)c(C(=O)OCCCCN(C)C)c2)c2ccccc2N1 [Example 162]" recorded_number=9.89
molecule="CCCN1CCN(CCCOc2cc(C(=O)N3CC[C@@H](C)Nc4ccccc43)ccc2-c2ccc3[nH]ccc3c2)CC1 [Example 128]" recorded_number=9.70
molecule="CCCCN(C)CCCCOc1cc(C(=O)N2CC[C@H](C)Nc3ccccc32)ccc1-c1ccc2[nH]ccc2c1 [Example 173]" recorded_number=9.68
molecule="CC(=O)Nc1cc(C(=O)N2CCC(C)Nc3ccccc32)ccc1-c1ccc2[nH]ccc2c1 (stereo not drawn) [Example 3]" recorded_number=9.74

P. C[C@H]1CCN(C(=O)c2ccc(-c3ccc4[nH]ccc4c3)c(NC(=O)N3CCOCC3)c2)c2ccccc2N1 [Example 89]
Q. CCCN(C)CCCOc1cc(C(=O)N2CC[C@H](C)Nc3ccccc32)ccc1-c1ccc2[nH]ccc2c1 [Example 81]
Endpoint returns the identifier whose pKi is numerically larger, either P or Q . Let me know the label of the one you choose.
Q
(Q: 9.77, P: 9.54)

###

# EXPERIMENTAL_TARGET: human vasopressin V2 receptor (Homo sapiens)
# ASSAY_INFO: Receptor binding study, [3H]AVP displacement on CHO cell membranes, human V2
# STUDY_CONDITIONS: [3H]AVP displacement, CHO cell membrane, 25° C., one hour; read-out: Human V2 Ki
REPORTED_PROPERTY: Ki (nM)

Worked set:
molecule="CC1CCN(C(=O)c2ccc(-c3ccc4[nH]ccc4c3)c(OCCCCN)c2)c2ccccc2N1 (stereo not drawn) [Example 36]" readout_unit=nM recorded_number=11
molecule="C[C@H]1CCN(C(=O)c2ccc(-c3ccc4[nH]ccc4c3)c(OCCCN3CCC(N4CCOCC4)CC3)c2)c2ccccc2N1 [Example 107]" readout_unit=nM recorded_number=33
molecule="CNc1ccc(-c2ccc(C(=O)N3CC[C@H](C)Nc4ccccc43)cc2OCCN2CCOCC2)cc1 [Example 74]" readout_unit=nM recorded_number=6.1
molecule="CCN(C)CCCOc1cc(C(=O)N2CC[C@H](C)Nc3ccccc32)ccc1-c1ccc2[nH]ccc2c1 [Example 118]" readout_unit=nM recorded_number=9.5
molecule="C[C@H]1CCN(C(=O)c2ccc(-c3ccc4[nH]ccc4c3)c(OCCCN3CCC(N(C)C)CC3)c2)c2ccccc2N1 [Example 123]" readout_unit=nM recorded_number=9.9

P. CCCN(C)CCCOc1cc(C(=O)N2CC[C@H](C)Nc3ccccc32)ccc1-c1ccc2[nH]ccc2c1 [Example 81]
Q. CC(C)N1CCN(CCCOc2cc(C(=O)N3CC[C@H](C)Nc4ccccc43)ccc2-c2ccc3[nH]ccc3c2)CC1 [Example 99]
R. C[C@H]1CCN(C(=O)c2ccc(-c3ccc4[nH]ccc4c3)c(OCCCN(C)C)c2)c2ccccc2N1 [Example 78]
Arrange these molecules by their Ki, starting with the largest number. Answer by listing the labels in the order asked for.
R, P, Q

a. C[C@H]1CCN(C(=O)c2ccc(-c3ccc4[nH]ccc4c3)c(N3CCN(C)CC3)c2)c2ccccc2N1 [Example 149]
b. C[C@H]1CCN(C(=O)c2ccc(-c3ccc4[nH]ccc4c3)c(OCCN3CCN(C)CC3)c2)c2ccccc2N1 [Example 110]
c. C[C@H]1CCN(C(=O)c2ccc(-c3ccc4[nH]ccc4c3)c(C(=O)CCCCN(C)C)c2)c2ccccc2N1 [Example 158]
d. C[C@H]1CCN(C(=O)c2ccc(-c3ccc(N)cc3)c(OCCN3CCOCC3)c2)c2ccccc2N1 [Example 60]
Arrange these molecules by their Ki, starting with the largest number. Answer by listing the labels in the order asked for.
d, c, b, a
(d: 84 nM, c: 13 nM, b: 6.5 nM, a: 1.9 nM)

1. C[C@H]1CCN(C(=O)c2ccc(-c3ccc4[nH]ccc4c3)c(OCCCN3CCOCC3)c2)c2ccccc2N1 [Example 61]
2. CCCN(C)CCOc1cc(C(=O)N2CC[C@H](C)Nc3ccccc32)ccc1-c1ccc2[nH]ccc2c1 [Example 121]
Endpoint returns the identifier whose Ki is numerically larger, either 1 or 2 . Let me know the label of the one you choose.
2
(2: 10 nM, 1: 1.9 nM)

###

# EXPERIMENTAL_TARGET: UniProt:P37288
# ASSAY_INFO: Receptor binding study, [3H]AVP displacement on CHO cell membranes, human V1a
# STUDY_CONDITIONS: [3H]AVP displacement, CHO cell membrane, 25° C., one hour; read-out: Human V1a Ki
pKi: −log10 of the molar value.
REPORTED_PROPERTY: pKi

A. CCCCCN(C)CCCOc1cc(C(=O)N2CC[C@H](C)Nc3ccccc32)ccc1-c1ccc2[nH]ccc2c1
B. C[C@H]1CCN(C(=O)c2ccc(-c3ccc4[nH]ccc4c3)c(OCCN3CCN(C)CC3)c2)c2ccccc2N1
C. CCCN(C)CCCOc1cc(C(=O)N2CC[C@H](C)Nc3ccccc32)ccc1-c1ccc(OC)cc1
Put the entries in order of pKi, starting with the largest number. Answer by listing the labels in the order asked for.
B, C, A

I. CCCN(C)CCCOc1cc(C(=O)N2CC[C@H](C)Nc3ccccc32)ccc1-c1ccc(OC(F)F)cc1
II. C[C@H]1CCN(C(=O)c2ccc(-c3ccc4[nH]ccc4c3)c(N3CCOCC3)c2)c2ccccc2N1
Parameter metric = pKi. Return the lower-valued option from I and II . Let me know the label of the one you choose.
II
(II: 9.31, I: 9.55)

1. CCCN(C)CCCOc1cc(C(=O)N2CC[C@H](C)Nc3ccccc32)ccc1-c1ccc(NCC)cc1
2. CCCN1CCN(CCCOc2cc(C(=O)N3CC[C@H](C)Nc4ccccc43)ccc2-c2ccc(NCC)cc2)CC1
Parameter metric = pKi. Return the lower-valued option from 1 and 2 . Let me know the label of the one you choose.
1

###

# EXPERIMENTAL_TARGET: human vasopressin V2 receptor (Homo sapiens)
# ASSAY_INFO: Receptor binding study, [3H]AVP displacement on CHO cell membranes, human V2
REPORTED_PROPERTY: pKi
Keep in mind that pKi stands for -log10 of concentration in molar terms.

Could you share which pKi value was measured for CCCN(C)CCCCOc1cc(C(=O)N2CC[C@H](C)Nc3ccccc32)ccc1-c1ccc2[nH]ccc2c1 ?
7.92

###

# EXPERIMENTAL_TARGET: human vasopressin V2 receptor (Homo sapiens, UniProt P30518)
# Sequence (P30518 whole entry): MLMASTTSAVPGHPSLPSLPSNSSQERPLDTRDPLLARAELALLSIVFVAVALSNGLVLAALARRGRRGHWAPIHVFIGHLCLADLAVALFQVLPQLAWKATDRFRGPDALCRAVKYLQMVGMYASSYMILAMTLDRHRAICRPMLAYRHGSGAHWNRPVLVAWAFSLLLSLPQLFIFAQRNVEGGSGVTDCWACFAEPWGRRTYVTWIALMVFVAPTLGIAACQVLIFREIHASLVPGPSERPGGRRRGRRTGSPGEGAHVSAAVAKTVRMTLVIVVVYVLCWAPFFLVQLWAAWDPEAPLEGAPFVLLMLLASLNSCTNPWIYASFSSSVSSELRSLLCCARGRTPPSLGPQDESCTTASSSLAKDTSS
# ASSAY_INFO: Receptor binding study, [3H]AVP displacement on CHO cell membranes, human V2
# STUDY_CONDITIONS: [3H]AVP displacement, CHO cell membrane, 25° C., one hour; read-out: Human V2 Ki
REPORTED_PROPERTY: Ki (nM)

1. C[C@H]1CCN(C(=O)c2ccc(-c3ccc4[nH]ccc4c3)c(C(=O)OCCN(C)C)c2)c2ccccc2N1
2. C[C@H]1CCN(C(=O)c2ccc(-c3ccc4[nH]ccc4c3)c(OCCCCN3CCOCC3)c2)c2ccccc2N1
3. CCCN(C)CCCOc1cc(C(=O)N2CC[C@H](C)Nc3ccccc32)ccc1-c1ccc(NCC)cc1
4. C[C@H]1CCN(C(=O)c2ccc(-c3ccc4[nH]ccc4c3)c(N3CCOCC3)c2)c2ccccc2N1
Put the entries in order of Ki, starting with the largest number. Answer by listing the labels in the order asked for.
3, 1, 2, 4

I. COCCN(CCCOc1cc(C(=O)N2CC[C@H](C)Nc3ccccc32)ccc1-c1ccc2[nH]ccc2c1)CCOC
II. CCCN1CCN(CCOc2cc(C(=O)N3CC[C@H](C)Nc4ccccc43)ccc2-c2ccc(NCC)cc2)CC1
III. C[C@H]1CCN(C(=O)c2ccc(-c3ccc4[nH]ccc4c3)c(C(=O)N3CCN(C)CC3)c2)c2ccccc2N1
List the 3 entries from lowest Ki to highest Ki value. Answer by listing the labels in the order asked for.
I, II, III

I. CCCN(C)CCCCCOc1cc(C(=O)N2CC[C@H](C)Nc3ccccc32)ccc1-c1ccc2[nH]ccc2c1
II. CC1CCN(C(=O)c2ccc(-c3ccc4[nH]ccc4c3)c(OCCCCCN)c2)c2ccccc2N1 (stereo not drawn)
III. CCCN(C)CCCCOc1cc(C(=O)N2CC[C@H](C)Nc3ccccc32)ccc1-c1ccc(NCC)cc1
List the 3 entries from lowest Ki to highest Ki value. Answer by listing the labels in the order asked for.
II, I, III

1. CC(C)N(C)CCCOc1cc(C(=O)N2CC[C@H](C)Nc3ccccc32)ccc1-c1ccc2[nH]ccc2c1
2. CC1CCN(C(=O)c2ccc(-c3ccc4[nH]ccc4c3)c(OCCN3CCOCC3)c2)c2ccccc2N1 (stereo not drawn)
Endpoint returns the identifier whose Ki is numerically larger, either 1 or 2 . Let me know the label of the one you choose.
1
(1: 7.7 nM, 2: 1.1 nM)

Data credit: patent US20080076760A1
